Values compiled from PubChem BioAssay AID624330.

molecular target: Rac GTPase-activating protein 1 (Homo sapiens); experiment: blockers of MgcRacGAP-driven Rac1 GTP hydrolysis – biochemical, ADP Hunter fluorescence, primary and confirmatory, confirmation (AID 624330); settings: MgcRacGAP-stimulated Rac1 GTP hydrolysis, at 30 µM, hits give high values, GST-tagged Rac1 F28L mutant substrate;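 further: fluorescence reports GDP produced by GAP-driven GTP hydrolysis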
Screen size: about 340,000 compounds; about 2,100 (0.62%) were called active. These entries were drawn from the full list. Entries with a potency or affinity are not part of this list.
MEASURED ATTRIBUTE: inhibition (%)
Expressed in %, but write only the number.

Q: Can you look up the measured inhibition of Cc1ccc(N/C(CSC(N)=O)=N/S(=O)(=O)c2ccccc2)cc1 for me?
Ans: 4.14

Q: Now the same for O=C(c1ccc(OC2CCN(CCCc3ccccc3)CC2)cc1)N1CCCC1
Ans: 3.48

Q: Now consider CCOc1ccc(-c2n[nH]c(C)c2Oc2ccc(OC)cc2)c(O)c1 .
Ans: 11

Q: Then this compound: COc1cccc(NC(=O)[C@@H]2CCC(=O)N2C2OC(=O)c3ccccc32)c1 (stereo partly specified)
Ans: -0.84

Q: Next entry: COc1ccc(NC(=O)c2ccc(OC(F)F)cc2)cc1Cl
Ans: -1.44

Q: Please do the same for Cc1cccc(CNc2ccc(C(CC(N)=O)NC(=O)c3ccccc3)cc2[N+](=O)[O-])c1 (stereo unspecified) as well.
Ans: -3.89

Q: Moving on to COc1ccc(CNC(=O)C2CCC(=O)N(CC3CCCCC3)C2)cc1 (stereo unspecified)
Ans: 8.55

Q: Would you mind doing CC1CC(C)CN(c2cc(=O)n(Cc3ccc(F)cc3)c(=O)[nH]2)C1 (stereo unspecified) as well?
Ans: 6.97

Q: Record: CC(Oc1ccccc1)C(=O)NNC(=O)c1ccccn1 (stereo unspecified)
Ans: 3.78

Q: Try this compound too: O=C(NC1CCCCCCC1)c1ccc2c(c1)OCO2
Ans: 4.04

Q: Ok, now CCOC(=O)c1ccc(NC(=S)NCCCn2ccnc2)cc1
Ans: -38.2
